The reported measurements were obtained from the NIST ThermoML archive (doi:10.1021/acs.jced.9b00102).

# condition_description: 323.15 K; Liquid; Ebulliometric method (Recirculating still)
measurement_label: vapor or sublimation pressure (kPa)

(a) CC(C)CO
(b) O
Larger number for vapor or sublimation pressure: a , or b ? State the label of the item chosen. b

(A) CCCO
(B) CCCCCC
Compare A and B and name the one whose reported vapor or sublimation pressure is smaller. State the label of the item chosen. A
